Test system: Rattus norvegicus
Assay: In vivo Sterol lowering activity at dose as 0.10 % of the diet.
Type: functional
Measure Name: serum sterol, percent of control
Express the reported value numerically, then name its unit.

- Molecule: "CCOC(=O)c1ccc(NC(=O)CCc2ccc(Cl)cc2)cc1"
  serum sterol, percent of control: "99%"

Provide serum sterol, percent of control values for the following items, in order.
1. O=C(O)c1ccc(NCCCc2cccc(Cl)c2)cc1
2. CCOC(=O)c1ccc(NCCCCCC(=O)c2ccc(Cl)cc2)cc1
3. CCOC(=O)c1ccc(NCCCc2cccc(Br)c2)cc1
4. O=C(O)c1ccc(NCCc2cccc3ccccc23)cc1
5. CCOC(=O)c1ccc(NCCCCCCc2ccco2)cc1
6. CCOC(=O)c1ccc(N(CC)CCCc2ccc(Cl)cc2)cc1

Output line:
85%
99%
94%
93%
90%
86%

Provide serum sterol, percent of control values for the following items, in order.
1. CCOC(=O)c1ccc(N(C)CCCc2ccc(Cl)cc2)cc1
2. CCOC(=O)c1ccc(NCCCc2ccccc2F)cc1
3. CCOC(=O)c1ccc(NC(=O)CCCCCc2ccc(Cl)cc2)cc1
4. CCOC(=O)c1ccc(NCc2ccc(-c3ccccc3)cc2)cc1
5. CCCCCCNc1ccc(C(=O)O)cc1

Output line:
1. 99%
2. 97%
3. 99%
4. 94%
5. 94%

Provide serum sterol, percent of control values for the following items, in order.
1. O=C(O)c1ccc(NCc2ccc(OCc3ccccc3)cc2)cc1
2. CCOC(=O)c1ccc(NC(=O)CCCCC(=O)c2ccc(Cl)cc2)cc1
3. CCOC(=O)c1ccc(NCCc2ccc(Cl)cc2)cc1
4. O=C(CCCCC(=O)c1ccc(Cl)cc1)Nc1ccc(C(=O)O)cc1

Output line:
["97%", "90%", "97%", "97%"]

Provide serum sterol, percent of control values for the following items, in order.
1. CCOC(=O)C(C)c1ccc(NCCCc2ccc(Cl)cc2)cc1 (stereo not drawn)
2. CN(CCCc1ccc(Cl)cc1)c1ccc(C(=O)O)cc1

Output line:
1. 75%
2. 107%

----------
I'd be grateful if you could share measured Diet for these entries.
Tested on: Rattus norvegicus
Assay: In vivo triglyceride lowering activity dosed at 0.05 % of the diet
Type: functional
One number for each entry, in %.

- Structure Smiles: "CCOC(=O)c1ccc(NCc2ccc(OC)cc2)cc1"
  Study System: "Rattus norvegicus"
  Diet / %: 62
- Structure Smiles: "O=C(O)c1ccc(NCc2ccc(-c3ccccc3)cc2)cc1"
  Study System: "Rattus norvegicus"
  Diet / %: 70
- Structure Smiles: "O=C(O)c1ccc(NCCCc2ccccc2)cc1"
  Study System: "Rattus norvegicus"
  Diet / %: 51

Input line: Output Diet of `CCCCCCCCCCCCCCCCNc1cccc(C(=O)O)c1`
Output line: 92

----------
Test system: Rattus norvegicus
Experiment: In vivo Sterol lowering activity at dose as 0.10 % of the diet.
Assay type: functional
I'd be grateful if you could share measured serum sterol, percent of control for these entries.
One number for each entry, in %.

Previously resolved entries follow.
- Compound: "CCN(CCCc1ccc(Cl)cc1)c1ccc(C(=O)O)cc1"
  Data Value: 83
- Compound: "O=C(O)c1ccc(NCCCCCC(O)c2ccc(Cl)cc2)cc1 (stereo unspecified)"
  Data Value: 86
- Compound: "CCOC(=O)c1ccc(NCCCCc2cccs2)cc1"
  Data Value: 90

Provide serum sterol, percent of control values for the following items, in order.
1. CCOC(=O)c1ccc(NCCCc2c(Cl)cccc2Cl)cc1
2. CCOC(=O)c1ccc(NC/C=C/c2ccc(Cl)cc2)cc1
3. CCOC(=O)c1ccc(NCCCc2ccccc2N)cc1
4. O=C(O)c1ccc(NCCCCCCc2ccc(Cl)cc2)cc1
5. O=C(O)c1ccc(N(CCCc2ccc(Cl)cc2)CCCc2ccc(Cl)cc2)cc1
6. CCOC(=O)c1ccc(NCCCc2ccco2)cc1

Output line:
[92, 78, 98, 82, 98, 101]

----------
I'd be grateful if you could share measured serum sterol, percent of control for these entries.
System: Rattus norvegicus
Experiment: In vivo Sterol lowering activity at dose as 0.10 % of the diet.
Type: functional
Answers are plain numbers, in %.

Previously resolved entries follow.
- Structure Smiles: "Cc1ccc(CCCNc2ccc(C(=O)O)cc2)cc1"
  serum sterol, percent of control, %: 110
- Structure Smiles: "O=C(O)c1ccc(NCCCc2ccc(OCc3ccccc3)cc2)cc1"
  serum sterol, percent of control, %: 93
- Structure Smiles: "O=C(O)c1ccc(NCCCc2c(Cl)cccc2Cl)cc1"
  serum sterol, percent of control, %: 106
- Structure Smiles: "CCOC(=O)c1ccc(NCc2ccc(OC)cc2)cc1"
  serum sterol, percent of control, %: 94
- Structure Smiles: "O=C(O)c1ccc(NCCc2cccs2)cc1"
  serum sterol, percent of control, %: 88

Provide serum sterol, percent of control values for the following items, in order.
1. O=C(O)c1cccc(NCCCc2ccc(Cl)cc2)c1
2. O=C(O)c1ccc(NCc2ccc(-c3ccccc3)cc2)cc1
3. O=C([O-])c1ccc(NCc2ccc(Cl)cc2)cc1.[Na+]
4. COc1ccc(CNc2ccc(C(=O)O)cc2)cc1
5. CCOC(=O)c1ccc(NCCCc2ccc(Cl)c(Cl)c2)cc1
6. CCOC(=O)c1ccc(NCCCc2ccc(Cl)cc2)cc1C(=O)OCC

Output line:
92
90
83
94
90
96

----------
Tested on: Rattus norvegicus
Test: In vivo Sterol lowering activity at dose as 0.017 % of the diet.
Assay type: functional
I'd be grateful if you could share measured Diet for these entries.
Numbers only, in %.

Provide Diet values for the following items, in order.
1. CCOC(=O)c1ccc(NCCc2cccc3ccccc23)cc1
2. O=C(O)c1ccc(NCCc2cccc3ccccc23)cc1
3. CCOC(=O)c1ccc(NCc2ccc(OCc3ccccc3)cc2)cc1
4. CCOC(=O)c1ccc(NCc2ccccc2)cc1
5. O=C(O)c1ccc(NCc2ccccc2)cc1
6. O=C(O)c1ccc(NCCCCc2cccs2)cc1

Output line:
98
108
105
108
101
90

Input line: Output reported Diet of the molecule `O=C(O)c1ccc(NCCc2cccs2)cc1` on Rattus norvegicus.
Output line: 74

----------
Target: Sterol O-acyltransferase 1 (Rattus norvegicus)
Assay: In vitro inhibitory activity against acyl coenzyme A:cholesterol acyltransferase (ACAT)
Set-up: concentration or dose not given beside the values
Conditions: concentration not given here
Use YES when the recorded inhibition is no lower than 30%; use NO when it is lower.

See these solved cases before continuing.
- Compound: "CCOC(=O)c1ccc(NC(=O)CCCCC(=O)c2ccc(Cl)cc2)cc1"
  Class Label: "YES"
- Compound: "COc1ccc(CCC(=O)Nc2ccc(C(=O)O)cc2)cc1"
  Class Label: "NO"
- Compound: "O=C(O)c1ccc(NCCCCCCc2ccco2)cc1"
  Class Label: "NO"

Input line: Identify whether the reported inhibition of the following compound is 30% or greater: `O=C(O)c1ccc(NCCc2ccc(OCc3ccccc3)cc2)cc1`
Output line: NO

Input line: Identify whether the reported inhibition of the following compound is 30% or greater: `O=C(O)c1ccc(NCCc2ccc(Cl)cc2)cc1`
Output line: NO

Input line: Identify whether the reported inhibition of the following compound is 30% or greater: `O=[N+]([O-])c1ccc(CCCNc2ccccc2)cc1`
Output line: YES

Input line: Identify whether the reported inhibition of the following compound is 30% or greater: `O=C(O)c1ccc(NCCCc2cccc(Cl)c2)cc1`
Output line: NO

Input line: Identify whether the reported inhibition of the following compound is 30% or greater: `O=C(O)c1ccc(NCCCCc2cccs2)cc1`
Output line: NO

Input line: Identify whether the reported inhibition of the following compound is 30% or greater: `CN(CCCc1ccc(Cl)cc1)c1ccc(C(=O)O)cc1`
Output line: NO

Input line: Identify whether the reported inhibition of the following compound is 30% or greater: `CCOC(=O)c1ccc(NCCCc2ccc(F)cc2)cc1`
Output line: NO

Input line: Identify whether the reported inhibition of the following compound is 30% or greater: `CCOC(=O)c1ccc(NCc2ccc(-c3ccccc3)cc2)cc1`
Output line: NO

Input line: Identify whether the reported inhibition of the following compound is 30% or greater: `CCCCCCCCc1ccc(CNc2ccc(C(=O)O)cc2)s1`
Output line: NO

----------
Test system: Rattus norvegicus
Test: In vivo Triglyceride lowering activity at dose as 0.05 % of the diet.
Type: functional
Rule: Diet below 80% gives yes. Equal to or above 80% gives no.

Input line: Field: below-cutoff. Rule: recorded Diet strictly less than 80%. Subject: `O=C(O)c1ccc(NCCc2cccs2)cc1`
Output line: no

Input line: Field: below-cutoff. Rule: recorded Diet strictly less than 80%. Subject: `CCOC(=O)c1ccc(NCCCc2ccccc2OC)cc1`
Output line: yes

Input line: Field: below-cutoff. Rule: recorded Diet strictly less than 80%. Subject: `O=C(O)c1ccc(NCCc2ccccc2)cc1`
Output line: yes

Input line: Field: below-cutoff. Rule: recorded Diet strictly less than 80%. Subject: `COc1ccccc1CCCNc1ccc(C(=O)O)cc1`
Output line: no

Input line: Field: below-cutoff. Rule: recorded Diet strictly less than 80%. Subject: `O=C(O)c1ccc(NCCCCc2cccs2)cc1`
Output line: no

Input line: Field: below-cutoff. Rule: recorded Diet strictly less than 80%. Subject: `CCOC(=O)c1ccc(NCCc2cccs2)cc1`
Output line: no

Input line: Field: below-cutoff. Rule: recorded Diet strictly less than 80%. Subject: `CCOC(=O)c1ccc(NCCCCc2cccs2)cc1`
Output line: no

Input line: Field: below-cutoff. Rule: recorded Diet strictly less than 80%. Subject: `COc1ccc(CNc2ccc(C(=O)O)cc2)cc1`
Output line: yes

Input line: Field: below-cutoff. Rule: recorded Diet strictly less than 80%. Subject: `CCOC(=O)c1ccc(NCc2ccc(-c3ccccc3)cc2)cc1`
Output line: yes
